tgt: TDO (Homo sapiens, UniProt P48775)
Sequence (P48775 whole entry): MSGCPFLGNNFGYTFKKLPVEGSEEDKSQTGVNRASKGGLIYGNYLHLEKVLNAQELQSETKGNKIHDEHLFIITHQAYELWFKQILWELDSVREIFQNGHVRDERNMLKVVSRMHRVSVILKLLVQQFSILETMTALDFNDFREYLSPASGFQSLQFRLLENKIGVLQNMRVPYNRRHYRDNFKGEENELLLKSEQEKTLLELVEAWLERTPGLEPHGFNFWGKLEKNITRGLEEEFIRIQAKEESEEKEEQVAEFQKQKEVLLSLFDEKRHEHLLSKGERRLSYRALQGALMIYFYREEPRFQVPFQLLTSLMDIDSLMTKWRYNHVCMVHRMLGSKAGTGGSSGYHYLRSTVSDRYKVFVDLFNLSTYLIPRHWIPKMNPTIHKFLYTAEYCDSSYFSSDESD
pIC50: −log10 of the molar value.
measurement-kind: pIC50

> print(dat)
                                   compound  reading
1  O[C@H](c1c(C2CC2)ccn2cncc12)[C@H]1CC[C@H](c2cccc(F)c2)CC1 (single isomer, unassigned) [Example C109a]     5.07
2  COc1ccc([C@H]2CC[C@H]([C@H](O)c3c(C4CC4)ccc4cncn34)CC2)cc1 (single isomer, unassigned) [Example D102a]     5.28
3  O[C@H](c1c(C2CC2)ccn2cncc12)[C@H]1CC[C@H](c2ccc(C(F)(F)F)cc2)CC1 (single isomer, unassigned) [Example C115a]     4.96
4  O[C@H](c1c(C2CC2)ccc2cncn12)[C@H]1CC[C@H](c2ccc(F)cc2)CC1 (single isomer, unassigned) [Example D104a]     5.12
5  OC(c1c(C2CC2)ccc2cncn12)[C@H]1CC[C@H](c2ccc(Cl)cc2)CC1 (single isomer, unassigned) [Example D103c]     5.09

----------
pIC50: −log10 of the molar value.
For TDO (Homo sapiens), measured pIC50 is reported for the entries below.
measurement-kind: pIC50

Example entries and their recorded answers appear below.
> print(dat)
                                   molecule  measurement.kind  reading
1  O[C@H](c1c(C2CC2)ccc2cncn12)[C@H]1CC[C@H](c2ccc(-c3ccccc3)cc2)CC1 (single isomer, unassigned) [Example D119a]             pIC50     5.29
2  O[C@H](c1c(C2CC2)ccc2cncn12)[C@H]1CC[C@H](c2cccc(F)c2)CC1 (single isomer, unassigned) [Example D156a]             pIC50     4.92

I: O[C@H](c1c(C2CC2)ccn2cncc12)[C@H]1CC[C@H](c2cccc3ccccc32)CC1 (single isomer, unassigned) [Example C121a]
II: O[C@H](c1c(C2CC2)ccn2cncc12)[C@H]1CC[C@H](c2ccc(OC3CCCC3)cc2)CC1 (single isomer, unassigned) [Example C118a]
Ask: API: POST /compare with I and II ; response names the item with higher pIC50. Identify your selection by its label.
Reply: I

A: Cc1ccccc1[C@H]1CC[C@H]([C@H](O)c2c(C3CC3)ccn3cncc23)CC1 (single isomer, unassigned) [Example C112a]
B: O[C@@H](c1c(C2CC2)ccc2cncn12)[C@H]1CC[C@@H](c2ccc(OC3CCOCC3)cc2)CC1 [Example D114a]
Ask: Form: Entry with minimum pIC50 (choose one): A / B Identify your selection by its label.
Reply: A

a: O[C@H](c1c(C2CC2)ccc2cncn12)[C@H]1CC[C@H](c2ccc(F)c3ccccc32)CC1 (single isomer, unassigned) [Example D137a]
b: Cc1ccc([C@H]2CC[C@H]([C@H](O)c3c(C4CC4)ccn4cncc34)CC2)cc1 (single isomer, unassigned) [Example C110a]
c: COc1ccc([C@H]2CC[C@H]([C@H](O)c3c(C4CC4)ccn4cncc34)CC2)cc1 [Example C101a]
d: O[C@@H](c1cc(Cl)cc2cncn12)[C@H]1CC[C@H](c2ccc3ccccc3c2)CC1 (single isomer, unassigned) [Example E104b]
e: Oc1ccc([C@H]2CC[C@H](C(O)c3c(C4CC4)ccn4cncc34)CC2)cc1 (single isomer, unassigned) [Example C104a]
Ask: Arrange the 5 molecules by rising pIC50, starting with the smallest. Present the labels in the sequence the task asks for.
Reply: b, a, c, e, d
(b: 4.68, a: 5.13, c: 5.38, e: 5.60, d: 5.85)
